- Assay system: Ribonuclease pancreatic (Bos taurus) (UniProt P61823)
- Sequence (P61823 whole entry): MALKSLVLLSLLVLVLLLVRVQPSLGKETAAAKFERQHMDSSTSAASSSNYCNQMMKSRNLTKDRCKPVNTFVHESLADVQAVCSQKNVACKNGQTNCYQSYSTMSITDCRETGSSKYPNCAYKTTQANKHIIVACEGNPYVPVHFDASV
- Assay details: Inhibition of bovine pancreatic RNase A assessed as degradation of 18s rRNA after 1 hr by agarose gel based assay
Activity calls are given as the source filed them. No cut-off for these calls is given here.
Answer with one of the outcomes given here: t for active, f for inactive

Prompt line: Call for entry O=C1[C@@H](CCn2cc(CO[C@@H]3Cc4c(O)cc(O)cc4O[C@@H]3c3ccc(O)c(O)c3)nn2)[C@@H](c2ccccc2)N1c1ccccc1 (mixture of isomers) :
Response line: t

Prompt line: Call for entry COc1ccc([C@@H]2[C@H](CCn3cc(CO[C@H]4Cc5c(O)cc(O)cc5O[C@@H]4c4ccc(O)c(O)c4)nn3)C(=O)N2c2ccccc2)cc1 (mixture of isomers) :
Response line: t

Prompt line: Call for entry COc1ccc([C@@H]2[C@H](CCn3cc(CO[C@@H]4Cc5c(O)cc(O)cc5O[C@@H]4c4ccc(O)c(O)c4)nn3)C(=O)N2c2ccccc2)cc1 (mixture of isomers) :
Response line: t

Prompt line: Call for entry O=C1[C@@H](CCn2cc(CO[C@H]3Cc4c(O)cc(O)cc4O[C@@H]3c3ccc(O)c(O)c3)nn2)[C@@H](c2ccccc2)N1c1ccccc1 (mixture of isomers) :
Response line: t

Prompt line: Call for entry Oc1cc(O)c2c(c1)O[C@H](c1ccc(O)c(O)c1)[C@H](O)C2 :
Response line: f

Prompt line: Call for entry Oc1cc(O)c2c(c1)O[C@H](c1ccc(O)c(O)c1)[C@@H](O)C2 :
Response line: f

All values here come from ChEMBL document CHEMBL1153712.
